Provenance of the data: patent US8541588B2

Biological target: Nav1.7 (or SCN9A) channel; HEK cells stably transfected with hSCN9A (Homo sapiens, UniProt Q15858)
Construct: expressed in transfected cells
Sequence (Q15858 whole entry): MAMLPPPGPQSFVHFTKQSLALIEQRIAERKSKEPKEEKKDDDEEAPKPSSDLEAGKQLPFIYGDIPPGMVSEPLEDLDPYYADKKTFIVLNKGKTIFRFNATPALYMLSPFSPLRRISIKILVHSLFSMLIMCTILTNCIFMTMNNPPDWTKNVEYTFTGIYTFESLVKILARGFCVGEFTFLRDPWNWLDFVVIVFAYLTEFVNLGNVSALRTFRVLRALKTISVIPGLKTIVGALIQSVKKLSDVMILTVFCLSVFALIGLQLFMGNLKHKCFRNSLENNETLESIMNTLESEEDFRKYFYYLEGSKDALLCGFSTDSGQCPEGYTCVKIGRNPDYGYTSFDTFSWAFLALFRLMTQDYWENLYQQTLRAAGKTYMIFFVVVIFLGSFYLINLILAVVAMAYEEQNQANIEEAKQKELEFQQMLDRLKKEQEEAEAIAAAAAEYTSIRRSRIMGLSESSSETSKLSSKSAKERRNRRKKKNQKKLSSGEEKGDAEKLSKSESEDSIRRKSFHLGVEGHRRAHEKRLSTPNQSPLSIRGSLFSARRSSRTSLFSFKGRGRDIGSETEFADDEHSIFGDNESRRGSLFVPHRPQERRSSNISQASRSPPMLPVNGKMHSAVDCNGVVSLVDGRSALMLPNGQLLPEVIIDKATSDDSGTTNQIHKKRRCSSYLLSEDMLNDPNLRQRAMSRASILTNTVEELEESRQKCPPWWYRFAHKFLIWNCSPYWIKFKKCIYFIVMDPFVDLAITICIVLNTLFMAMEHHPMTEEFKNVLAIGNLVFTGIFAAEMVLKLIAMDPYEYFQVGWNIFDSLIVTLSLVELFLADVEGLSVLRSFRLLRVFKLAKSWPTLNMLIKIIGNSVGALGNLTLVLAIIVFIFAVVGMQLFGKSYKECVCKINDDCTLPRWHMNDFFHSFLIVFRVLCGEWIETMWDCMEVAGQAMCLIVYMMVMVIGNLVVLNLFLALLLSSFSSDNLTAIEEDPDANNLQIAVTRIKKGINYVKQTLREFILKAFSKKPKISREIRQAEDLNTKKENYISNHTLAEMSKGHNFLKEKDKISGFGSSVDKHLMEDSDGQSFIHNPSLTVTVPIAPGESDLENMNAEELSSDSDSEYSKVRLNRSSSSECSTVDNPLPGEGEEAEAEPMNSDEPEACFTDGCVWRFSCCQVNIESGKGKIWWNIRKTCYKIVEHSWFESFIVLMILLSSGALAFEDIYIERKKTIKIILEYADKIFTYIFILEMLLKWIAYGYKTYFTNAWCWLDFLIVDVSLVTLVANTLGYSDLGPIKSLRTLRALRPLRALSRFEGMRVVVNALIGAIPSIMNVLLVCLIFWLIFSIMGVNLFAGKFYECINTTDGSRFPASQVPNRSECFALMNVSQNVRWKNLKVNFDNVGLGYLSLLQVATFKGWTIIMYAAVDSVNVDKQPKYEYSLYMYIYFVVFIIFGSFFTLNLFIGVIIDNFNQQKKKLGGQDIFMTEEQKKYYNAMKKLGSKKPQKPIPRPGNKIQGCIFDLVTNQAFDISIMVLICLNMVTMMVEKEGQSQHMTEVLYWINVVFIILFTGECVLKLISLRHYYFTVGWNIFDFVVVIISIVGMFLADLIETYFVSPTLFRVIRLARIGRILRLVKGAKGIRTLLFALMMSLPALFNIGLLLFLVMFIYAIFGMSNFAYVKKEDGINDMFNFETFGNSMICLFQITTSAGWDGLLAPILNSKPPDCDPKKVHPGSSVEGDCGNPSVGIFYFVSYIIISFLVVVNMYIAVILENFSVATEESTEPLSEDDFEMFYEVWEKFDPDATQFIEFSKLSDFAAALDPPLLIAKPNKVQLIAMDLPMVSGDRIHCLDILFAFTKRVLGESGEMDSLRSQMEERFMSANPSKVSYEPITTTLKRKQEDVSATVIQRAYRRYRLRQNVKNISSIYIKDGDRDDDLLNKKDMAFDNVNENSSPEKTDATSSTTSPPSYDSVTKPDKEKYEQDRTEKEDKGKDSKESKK
Experiment: Nav1.7 block, PatchXpress 7000 automated whole-cell voltage clamp, estimated IC50 (EIC50)
Assay type: cell-based
quantity.kind: pIC50
# reply with the number alone; pIC50 is -log10 of concentration in mol/L

Please give the documented pIC50 of O=S(=O)(Nc1ncns1)c1cc(F)c(Oc2ccc(C(F)(F)F)cc2C2=CCNCC2)cc1F 8.00

----------
Target: Nav1.7 (or SCN9A) channel; HEK cells stably transfected with hSCN9A (Homo sapiens, UniProt Q15858)
Construct: expressed in transfected cells
Test: Nav1.7 block, PatchXpress 7000 automated whole-cell voltage clamp, estimated IC50 (EIC50)
Assay type: cell-based
Settings: estimated IC50; hSCN9A HEK cells, PatchXpress platform; Examples 815-1040
quantity.kind: pIC50
# reply with the number alone; pIC50 is -log10 of concentration in mol/L

# annotated cases, reported pIC50 shown
Cc1cc(S(=O)(=O)Nc2nncs2)c(F)cc1Oc1ccc(Cl)cc1-c1ccnnc1 = 7.11
Cn1nccc1-c1cc(Cl)ccc1Oc1ccc(S(=O)(=O)Nc2cnsn2)cc1C#N = 5.41
Nc1n[nH]cc1-c1cc(Cl)ccc1Oc1ccc(S(=O)(=O)Nc2ccncn2)cc1Cl = 7.60
O=S(=O)(Nc1nncs1)c1ccc(Oc2ccc(OC(F)(F)F)cc2-c2ccnnc2)c(Cl)c1 = 7.46
Nc1cc(-c2cc(Cl)ccc2Oc2cc(F)c(S(=O)(=O)Nc3cscn3)cc2F)ccn1 = 7.72

Please give the documented pIC50 of Cc1n[nH]cc1-c1ccccc1Oc1ccc(S(=O)(=O)Nc2nccs2)cc1C(N)=O 5.57

Please give the documented pIC50 of N#Cc1ccc(-c2ccnnc2)c(Oc2cc(F)c(S(=O)(=O)Nc3ncns3)cc2Cl)c1 7.40

Please give the documented pIC50 of O=S(=O)(Nc1ncns1)c1cc(F)c(Oc2ccc(F)cc2-c2ccnnc2)cc1F 6.85

----------
Target: Nav1.7 (or SCN9A) channel; HEK cells stably transfected with hSCN9A (Homo sapiens)
Construct: expressed in transfected cells
Assay: Nav1.7 block, PatchXpress 7000 automated whole-cell voltage clamp, estimated IC50 (EIC50)
Format: cell-based
Details: PatchXpress platform; hSCN9A HEK cells held at V1/2 of inactivation; estimated IC50
Recorded measurements of IC50, one per entry
Answer with a number only, understood to be in nM.

# annotated cases, reported IC50 shown
N#Cc1cc(S(=O)(=O)Nc2ncc(Cl)s2)ccc1Oc1cc(C(F)(F)F)nn1-c1ccccc1 = 1230
N#Cc1cc(S(=O)(=O)Nc2nccs2)ccc1Oc1cccc(Cl)c1-c1ccn[nH]1 = 110
Cc1cccc(-c2cccc(F)c2)c1Oc1ccc(S(=O)(=O)Nc2ncns2)cc1C#N = 15500

Let us examine a further case.
Please give the documented IC50 of COc1cccc(-c2cc(F)ccc2Oc2ccc(S(=O)(=O)Nc3nccs3)cc2C#N)c1 130

----------
Target: Nav1.7 (or SCN9A) channel; HEK cells stably transfected with hSCN9A (Homo sapiens, UniProt Q15858)
Construct: expressed in transfected cells
Assay: Nav1.7 block, PatchXpress 7000 automated whole-cell voltage clamp, estimated IC50 (EIC50)
Type: cell-based
Settings: estimated IC50; hSCN9A HEK cells, PatchXpress platform; Examples 283-814
quantity.kind: IC50

# annotated cases, reported IC50 shown
Nc1n[nH]cc1-c1cc(Cl)ccc1Oc1cc(F)c(S(=O)(=O)Nc2nncs2)cc1Cl = 4.8 nM
N#Cc1cc(S(=O)(=O)Nc2nccs2)ccc1Oc1cnn(-c2ccc(Cl)cc2)c1 = >1000 nM

Let us examine a further case.
Please give the documented IC50 of N#Cc1cc(S(=O)(=O)Nc2ncns2)ccc1Oc1ccc(-n2cc(CO)cn2)cc1 >1000 nM
